src = ChEMBL document CHEMBL3886859

target: Procathepsin L (Homo sapiens, UniProt P07711); assay: Enzyme Inhibition Assay: Enzyme activity is measured by observing the increase in fluorescence intensity caused by cleavage of a peptide substrate containing a fluorophore whose emission is quenched in the intact peptide.Assay buffer: 100 mM potassium phosphate pH 6.5, EDTA-Na 5 mM, Triton X-100 0.001%, DTT 5 mM.Enzymes (all at 1 nM): human and mouse Cathepsin S, Cat K, Cat B, Cat L.Substrate (20 μM): Z-Val-Val-Arg-AMC, except for Cat K which uses Z-Leu-Arg-AMC (both from Bachem).Z=Benzyloxycarbonyl.AMC=7-Amino-4-Methyl-Coumarin.DTT=dithiothreitol.Final volume: 100 μL.Excitation 360 nm, Emission 465 nm.Enzyme is added to the substance dilutions in 96-well microtitre plates and the reaction is started with substrate. Fluorescence emission is measured over 20 minutes, during which time a linear increase is observed in the absence of inhibitor.
Sequence (P07711 whole entry): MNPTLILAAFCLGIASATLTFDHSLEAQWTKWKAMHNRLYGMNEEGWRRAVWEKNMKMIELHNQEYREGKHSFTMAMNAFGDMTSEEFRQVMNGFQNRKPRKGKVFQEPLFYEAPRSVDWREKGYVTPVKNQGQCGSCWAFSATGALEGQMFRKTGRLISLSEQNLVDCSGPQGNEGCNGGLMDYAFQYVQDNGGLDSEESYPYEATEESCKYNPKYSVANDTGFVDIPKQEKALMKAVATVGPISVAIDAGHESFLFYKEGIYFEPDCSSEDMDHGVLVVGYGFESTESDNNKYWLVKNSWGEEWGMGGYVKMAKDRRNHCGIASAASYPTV
test readout: pIC50
Please keep in mind that pIC50 is minus log10 of the molar concentration; only the number is needed.

>>> df
                         structure_notation  observed_measurement
0  N#CC1(NC(=O)[C@@H]2C[C@@H](S(=O)(=O)c3ccc(Br)cc3Cl)CN2C(=O)C2(c3ncc(Cl)cc3F)CC2)CC1                  7.14

Now look at this entry.
Any idea what its pIC50 is? The compound is N#CC1(NC(=O)[C@@H]2C[C@@H](S(=O)(=O)c3cc(C(F)(F)F)ccc3Cl)CN2C(=O)C2(c3ncc(Cl)cc3F)CC2)CC1 7.25
